Target: UniProt P29476
Assay: Ki for inhibition of wild type nNOS
Assay type: biochemical
MEASURED QUANTITY: pKi
Reminder that pKi means the negative base-10 logarithm of the concentration expressed in mol/L.

Which measured pKi value corresponds to NC(=O)[C@@H]1C[C@@H](N)CN1C(=O)[C@@H](N)CCC/N=C(\N)N[N+](=O)[O-] ?
7.01

====

Biological target: D597N nNOS mutant (Rattus norvegicus, UniProt P29476, D597N)
Test: Ki for inhibition of D597N nNOS mutant
MEASURED QUANTITY: pKi
Reminder that pKi means the negative base-10 logarithm of the concentration expressed in mol/L.

Which measured pKi value corresponds to NC(=O)[C@@H]1C[C@@H](N)CN1C(=O)[C@@H](N)CCC/N=C(\N)N[N+](=O)[O-] ?
4.68

====

Target: N368D eNOS mutant (Bos taurus, UniProt P29473, N368D)
Experiment: Ki for inhibition of N368D eNOS mutant
Conditions: Asn368 replaced with Asp in eNOS (N368D eNOS mutant)
MEASURED QUANTITY: Ki (µM)
Kindly answer with a numeric value in µM, unit omitted.

Request - read-out Ki | tested on N368D eNOS mutant (Bos taurus, UniProt P29473, N368D) | compound NC(=O)[C@@H]1C[C@@H](N)CN1C(=O)[C@@H](N)CCC/N=C(\N)N[N+](=O)[O-]
5.1

The values you see were collected from patent US7056945B1.
